System: human whole blood
Experiment: LPS-Stimulation of Human Whole Blood, TNF-α release
Assay type: cell-based
Conditions: LPS 100 ng/ml, 6 hrs, read-out: Inhibitor activity versus human whole blood TNFα release
endpoint: IC50

smiles.repr	value.reported
C[C@@H](OC(C)(C)C)[C@H](NCCc1cccc(-c2cc(C(N)=O)c(NC(N)=O)s2)c1)C(=O)OC1CCCC1	> 5 µM
CC(C)(C)OC[C@H](NC/C=C/c1ccc(-c2cc(C(N)=O)c(NC(N)=O)s2)cc1)C(=O)OC1CCCC1	1 to 5 µM
CC(C)[C@H](NCc1cccc(-c2cc(C(N)=O)c(NC(N)=O)s2)c1)C(=O)OC1CCCC1	1 to 5 µM

Look up IC50 for this compound: CC(C)C[C@H](NCCc1cccc(-c2cc(C(N)=O)c(NC(N)=O)s2)c1)C(=O)OC1CCCC1
1 to 5 µM
